- measured_target: recombinant rat TOP (rRTOP) (Rattus norvegicus)
- Construct: made in house; host or cells: E. coli
- Sequence (P24155 whole entry): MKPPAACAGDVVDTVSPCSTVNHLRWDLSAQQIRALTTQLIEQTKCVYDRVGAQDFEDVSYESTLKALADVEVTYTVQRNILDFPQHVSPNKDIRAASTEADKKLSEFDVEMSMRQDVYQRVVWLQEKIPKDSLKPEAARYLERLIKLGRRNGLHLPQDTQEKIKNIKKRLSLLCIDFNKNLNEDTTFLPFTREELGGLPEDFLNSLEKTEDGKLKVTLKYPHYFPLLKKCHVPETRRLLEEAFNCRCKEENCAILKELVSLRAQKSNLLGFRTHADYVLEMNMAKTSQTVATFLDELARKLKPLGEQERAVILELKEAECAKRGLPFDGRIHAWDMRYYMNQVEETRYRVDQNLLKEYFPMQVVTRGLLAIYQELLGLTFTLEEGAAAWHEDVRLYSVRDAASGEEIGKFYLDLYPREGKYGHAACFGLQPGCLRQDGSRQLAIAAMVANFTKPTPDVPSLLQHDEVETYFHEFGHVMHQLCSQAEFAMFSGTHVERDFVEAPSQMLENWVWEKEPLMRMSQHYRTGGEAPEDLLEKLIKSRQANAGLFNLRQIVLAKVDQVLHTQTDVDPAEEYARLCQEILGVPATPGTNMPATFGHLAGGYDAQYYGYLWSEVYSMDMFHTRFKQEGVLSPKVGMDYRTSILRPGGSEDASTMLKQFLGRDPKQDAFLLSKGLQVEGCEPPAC
- run_description: Rates of hydrolysis by recombinant rat TOP
- Type: biochemical
- assay_context: 10 μg/mL substrate, pH 7.2 10 mM HEPES, 100 μM MnCl2, 37° C.; Suc-βAla-Leu-Ala-Leu-Dox = 1.0
quantity_measured: Rate of hydrolysis TOP
API note: the answer field is a bare number with no unit suffix.

Answered examples (3):
molecule	quantity_measured	measured
COc1cccc2c1C(=O)c1c(O)c3c(c(O)c1C2=O)C[C@@](O)(C(=O)CO)C[C@@H]3O[C@H]1C[C@H](NC(=O)[C@H](CC(C)C)NC(=O)[C@H](C)NC(=O)[C@H](CC(C)C)NC(=O)CCC(=O)O)[C@H](O)[C@H](C)O1	Rate of hydrolysis TOP	0.67
CCC(C)C(NC(=O)CCC(=O)O)C(=O)N(C)C(C)C(=O)NC(CC(C)C)C(=O)NC1CC(OC2CC(O)(C(=O)CO)Cc3c(O)c4c(c(O)c32)C(=O)c2c(OC)cccc2C4=O)OC(C)C1O (stereo not shown)	Rate of hydrolysis TOP	0
COc1cccc2c1C(=O)c1c(O)c3c(c(O)c1C2=O)C[C@@](O)(C(=O)CO)C[C@@H]3O[C@H]1C[C@H](NC(=O)[C@H](CC(C)C)NC(=O)[C@H](C)NC(=O)[C@H](CCSC)NC(=O)CCC(=O)O)[C@H](O)[C@H](C)O1	Rate of hydrolysis TOP	0.99

Quick one: Rate of hydrolysis TOP of COc1cccc2c1C(=O)c1c(O)c3c(c(O)c1C2=O)C[C@@](O)(C(=O)CO)C[C@@H]3O[C@H]1C[C@H](NC(=O)CNC(=O)[C@H](C)NC(=O)[C@H](CC(C)C)NC(=O)CCC(=O)O)[C@H](O)[C@H](C)O1 ? 0.43

Quick one: Rate of hydrolysis TOP of COc1cccc2c1C(=O)c1c(O)c3c(c(O)c1C2=O)CC(O)(C(=O)CO)CC3OC1CC(NC(=O)C(CC(C)C)NC(=O)C(C)N(C)C(=O)C(CC(C)C)NC(=O)CCC(=O)O)C(O)C(C)O1 (stereo not shown) ? 0

Quick one: Rate of hydrolysis TOP of CC[C@H](C)[C@H](NC(=O)CCC(=O)O)C(=O)N[C@@H](C)C(=O)N[C@@H](CC(C)C)C(=O)N[C@H]1C[C@H](O[C@H]2C[C@](O)(C(=O)CO)Cc3c(O)c4c(c(O)c32)C(=O)c2c(OC)cccc2C4=O)O[C@@H](C)[C@H]1O ? 0

----------
Rate of hydrolysis (F1) by entry:
- measured_target: HeLa cell trouase (F1) (Homo sapiens, UniProt P52888)
- Construct: The fractions containing the highest activity levels were pooled (fractions #43-46); host or cells: HeLa
- Sequence (P52888 whole entry): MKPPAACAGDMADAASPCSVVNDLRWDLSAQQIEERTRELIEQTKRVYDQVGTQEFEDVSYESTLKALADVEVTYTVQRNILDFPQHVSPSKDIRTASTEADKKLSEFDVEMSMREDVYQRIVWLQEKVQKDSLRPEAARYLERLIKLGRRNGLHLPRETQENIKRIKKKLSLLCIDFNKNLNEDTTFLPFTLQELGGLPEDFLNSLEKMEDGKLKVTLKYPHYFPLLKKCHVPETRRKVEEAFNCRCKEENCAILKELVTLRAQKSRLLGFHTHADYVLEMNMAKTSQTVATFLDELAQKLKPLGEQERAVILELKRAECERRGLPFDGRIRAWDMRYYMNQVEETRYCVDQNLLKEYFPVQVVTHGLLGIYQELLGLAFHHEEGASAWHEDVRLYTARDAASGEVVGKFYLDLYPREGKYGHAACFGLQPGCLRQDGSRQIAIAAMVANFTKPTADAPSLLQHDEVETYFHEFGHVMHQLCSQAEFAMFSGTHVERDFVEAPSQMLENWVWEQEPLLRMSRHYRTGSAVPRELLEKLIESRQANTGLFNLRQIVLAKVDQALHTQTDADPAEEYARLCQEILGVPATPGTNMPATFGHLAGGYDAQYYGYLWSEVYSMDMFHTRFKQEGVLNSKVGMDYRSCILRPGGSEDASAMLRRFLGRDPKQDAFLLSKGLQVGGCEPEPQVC
- run_description: Rates of hydrolysis by partially purified HeLa cell trouase (F1)
- Assay type: biochemical
- assay_context: 10 μg/mL substrate, pH 7.2 10 mM HEPES, 100 μM MnCl2, 37° C.; Suc-βAla-Leu-Ala-Leu-Dox = 1.0
API note: the answer field is a bare number with no unit suffix.

Answered examples (5):
molecule	quantity_measured	measured
COc1cccc2c1C(=O)c1c(O)c3c(c(O)c1C2=O)C[C@@](O)(C(=O)CO)C[C@@H]3O[C@H]1C[C@H](NC(=O)[C@H](CC(C)C)NC(=O)[C@H](C)NC(=O)[C@H](CC(C)C)NC(=O)CCC(=O)O)[C@H](O)[C@H](C)O1	Rate of hydrolysis (F1)	0.78
CC[C@H](C)[C@H](NC(=O)CCNC(=O)CCC(=O)O)C(=O)N[C@@H](C)C(=O)N[C@@H](CC(C)C)C(=O)N[C@H]1C[C@H](O[C@H]2C[C@](O)(C(=O)CO)Cc3c(O)c4c(c(O)c32)C(=O)c2c(OC)cccc2C4=O)O[C@@H](C)[C@H]1O	Rate of hydrolysis (F1)	0.025
COc1cccc2c1C(=O)c1c(O)c3c(c(O)c1C2=O)C[C@@](O)(C(=O)CO)C[C@@H]3O[C@H]1C[C@H](NC(=O)CNC(=O)[C@H](C)NC(=O)[C@H](CC(C)C)NC(=O)CCC(=O)O)[C@H](O)[C@H](C)O1	Rate of hydrolysis (F1)	0.4
CC[C@H](C)[C@H](NC(=O)CCC(=O)O)C(=O)N[C@@H](C)C(=O)N[C@@H](CC(C)C)C(=O)N[C@H]1C[C@H](O[C@H]2C[C@](O)(C(=O)CO)Cc3c(O)c4c(c(O)c32)C(=O)c2c(OC)cccc2C4=O)O[C@@H](C)[C@H]1O	Rate of hydrolysis (F1)	0
COc1cccc2c1C(=O)c1c(O)c3c(c(O)c1C2=O)CC(O)(C(=O)CO)CC3OC1CC(NC(=O)C(CC(C)C)NC(=O)C(C)N(C)C(=O)C(CC(C)C)NC(=O)CCC(=O)O)C(O)C(C)O1 (stereo not shown)	Rate of hydrolysis (F1)	0

Quick one: Rate of hydrolysis (F1) of CCC(C)C(NC(=O)CCC(=O)O)C(=O)N(C)C(C)C(=O)NC(CC(C)C)C(=O)NC1CC(OC2CC(O)(C(=O)CO)Cc3c(O)c4c(c(O)c32)C(=O)c2c(OC)cccc2C4=O)OC(C)C1O (stereo not shown) ? 0

Quick one: Rate of hydrolysis (F1) of COc1cccc2c1C(=O)c1c(O)c3c(c(O)c1C2=O)C[C@@](O)(C(=O)CO)C[C@@H]3O[C@H]1C[C@H](NC(=O)[C@H](CC(C)C)NC(=O)[C@H](C)NC(=O)[C@H](CCSC)NC(=O)CCC(=O)O)[C@H](O)[C@H](C)O1 ? 0.49

----------
- Tested on: HL-60 cells
- run_description: 3H-thymidine incorporation proliferation assay
- Type: cell-based
- assay_context: Homo sapiens, HL-60, 24 hours
quantity_measured: IC50 (µM)
Record the value in µM, omitting the unit from your answer.

Give IC50 (HL-60 cells) of the following compound: COc1cccc2c1C(=O)c1c(O)c3c(c(O)c1C2=O)C[C@@](O)(C(=O)CO)C[C@@H]3O[C@H]1C[C@H](N)[C@H](O)[C@H](C)O1 0.075
